The reported measurements were obtained from the DeepSol protein solubility set.

# assay_name: soluble on expression in E. coli; label from the status in PepcDB or PDB records
readout_type: soluble on expression in E. coli

* MFGNLQGKFIIATPEMDDEYFDRTVIYICEHNDNGTIGVIINTPTDLSVLELLTRMDFQMAKPRIYTQDQMVLNGGPVNQDRGFIVHSKTDHEFTHSYKVTDDITLTTSGDVLDSFGTQTAPEKFIVCLGCSTWKPHQLEQEIAQNYWLLSEANNQTLFETSYLDRWVEANEMLGISGILAPAGRALEHHHHHH | soluble
* MPTVSLGRFQKEDGINVPDWIDVVRRPSGGRALLHHREITYCLAVPKKINFGKLSVLEFHRLVHSLIRDALVEAGLHAELSSKRRGNTALCFDAPSRYEIVINGVKVVGSAQFRTAESIVEHGSIVLKQDIDL | soluble
* SLALPADPIQRCLDIRRLVDITSRQKMAAKEPGVLRFKFHKISASELPLDNPVGNMDEVIQALNNQIENCNNSYGEFQTVTIAGHQFKRQEWCLNTNKKMLTLAKAAHGDFKKFLSSIKTEFDWYKSDGWPENHAGFKKGEFQFTAYYAPAAVEARSERGGAFLYPLYSNPGVVSVALESKKYNLKTPLCGVDPLSKVMRGFCLKNADGTYSVAPDREEIEHGALNPKYIIGYLKDPNDSAFLMLQGSGSLLLDGKLFHINYDGANGRPRTMLGRIVQCAQDPTCGGNLDTMERCAKDPKCHDEAKLRCNVSKKIRQSAASEKLIRQYLNNLTPDKADNLRNRDQSYVFFAKEDGGPYGSENISLTPHV | not soluble
* FPSQDQYLAGLLETPEQKIRAYVLFAHCFTCGKDVAAASRISRFLVQHGFAVFRFDFTGLGNSDGDFANTNFSSNTEDLVSAAYFLEQNYEAPQLLIGHSLGGAAVLAMASQLPKVKGVVTIGAPYEASHVIHNFDAHLEKIDQSGSAKVSLGSREFTIKKQFLDDLRNQTTEHIQHLNKALLVLHSPIDLTVDISDAEKIYKAAKHPKSFVSLDTADHLLSKSIDSEYVAQTISGWASRYIP | not soluble
